- System under test: HLA-A*03:01
- Protocol: IEDB peptide-MHC binding, purified MHC/competitive/radioactivity; filed as Kd, often an IC50 or EC50 that approximates it; bounds were set here for any values at or beyond the usual limits of such assays
- Condition parameters: source organism: Dengue virus 2 Jamaica/1409/1983
Endpoint label: pKd
Units for pKd: none; it is -log10 of a concentration expressed in mol/L.

Could you share what pKd was measured for ITVNPIVTEK , tested on HLA-A*03:01?
7.62

###

- System under test: HLA-A*03:01
- Protocol: IEDB peptide-MHC binding, purified MHC/competitive/fluorescence; filed as Kd, often an IC50 or EC50 that approximates it; bounds were set here for any values at or beyond the usual limits of such assays
- Condition parameters: source organism: Giardia lamblia ATCC 50803
Endpoint label: pKd
Entry type: numeric. Quantity: pKd, the -log10 of concentration in molar units.

Request the reported pKd associated with KVSWRWMVY
8.37

###

- System under test: HLA-B*48:01
- Protocol: IEDB peptide-MHC binding, purified MHC/direct/fluorescence; filed as Kd, often an IC50 or EC50 that approximates it; bounds were set here for any values at or beyond the usual limits of such assays
- Condition parameters: source organism: Mammarenavirus juninense
pKd: −log10 of the molar value.
Endpoint label: pKd

Query (sequence): FRRVAHSSL ; field requested: pKd
≤ 4.70

###

- System under test: HLA-A*02:03
- Protocol: IEDB peptide-MHC binding, purified MHC/competitive/fluorescence; filed as Kd, often an IC50 or EC50 that approximates it; bounds were set here for any values at or beyond the usual limits of such assays
- Condition parameters: source organism: Yersinia pestis Nepal516
Endpoint label: Kd (µM)
Quick reminder: number only, in µM, skip the unit.

Kd lookup needed for QWSPGPGRL , thanks.
4.85

###

- System under test: HLA-A*26:01
- Protocol: IEDB peptide-MHC binding, purified MHC/competitive/radioactivity; filed as Kd, often an IC50 or EC50 that approximates it; bounds were set here for any values at or beyond the usual limits of such assays
- Condition parameters: source organism: Dengue virus 4 Philippines/H241/1956
pKd: −log10 of the molar value.
Endpoint label: pKd

Param readout= pKd; system= HLA-A*26:01; entry= EMADITGSSP ; returns value.
≤ 4.33

###

- System under test: HLA-B*27:05
- Protocol: IEDB peptide-MHC binding, purified MHC/direct/fluorescence; filed as Kd, often an IC50 or EC50 that approximates it; bounds were set here for any values at or beyond the usual limits of such assays
- Condition parameters: source organism: Influenza A virus (A/duck/Hokkaido/1130/01(H1N1))
pKd: −log10 of the molar value.
Endpoint label: pKd

Item under review: ELRSRYWAI . Reported pKd?
≤ 4.70

###

- System under test: HLA-A*26:01
- Protocol: IEDB peptide-MHC binding, purified MHC/direct/fluorescence; filed as Kd, often an IC50 or EC50 that approximates it; bounds were set here for any values at or beyond the usual limits of such assays
- Condition parameters: source organism: Yersinia pestis
Endpoint label: Kd (µM)
Please state the figure in µM; there is no need to write the unit.

Endpoint output: Kd of YGLGSTPLY . Value?
5.87

###

- System under test: HLA-B*45:01
- Protocol: IEDB peptide-MHC binding, purified MHC/competitive/radioactivity; filed as Kd, often an IC50 or EC50 that approximates it; bounds were set here for any values at or beyond the usual limits of such assays
- Condition parameters: source organism: SARS coronavirus Tor2
Endpoint label: Kd (nM)
Unit nM implied. Number only.

Solved entries (count: 8):
1) AEMDGIQYG 47.6
2) SEETGTLIV 121
3) KEGFFTYLCG 2890
4) LEWLAEVVKL 9160
5) YECLYRNRDV 2510
6) GEDIQLLKA 2880
7) SELVIGAVII 1900
8) YEQYIKWPWY 518

What value of Kd has been reported for the following sequence? KENDSKEGFF
24.4

The origin of these recorded values is the Immune Epitope Database (IEDB).
